- Test system: UACC-62 melanoma
- assay.text: NCI-60 one-dose screen, 48 h (100 = growth as untreated, 0 = no growth, -100 = all killed)
- conditions.used: 10 µM unless noted
The panel holds about 83,000 compounds, 20% with a hit somewhere; the sample as a whole holds those more often.
Each entry below carries its recorded growth.
State just the number; it will be interpreted in %.

Cn1cc(-c2nc(N)nnc2-c2c[nH]c3ccc(Br)cc23)c2cc(F)ccc21
91.7
Cc1ccc(S(=O)(=O)NCCCNc2nccc(-c3[nH]c(-c4ccccc4)nc3-c3ccc(F)c(O)c3)n2)cc1
18.7
CCNC(=O)Oc1ccc(/C(=C(/C)c2ccc(Cl)cc2)c2ccc(OCCN3CCCCCC3)cc2)cc1
2.74
CC1(C)CC[C@]2(C(=O)NCCCCCCN(CCCN)CCCN)CC[C@]3(C)C(=CC[C@@H]4[C@@]5(C)CC[C@H](O)C(C)(C)[C@@H]5CC[C@]43C)[C@@H]2C1
88.1

Q) Tell me measured growth for `CC1=C(C)C(=O)C(Nc2cccc(C(=O)OC(C)(C)C)c2)=C(Cl)C1=O` please.
A) 93.4

Q) Answer with the recorded growth for the compound listed here: `Cc1ccc(C(=O)Nc2ccc(CNCCN3CCNCC3)c(C(F)(F)F)c2)cc1C#Cc1cnc2cccnn12`
A) -41

Q) State its growth for this compound: `CN1CCN(CC#CCn2c3c(c4ccccc42)C[C@]2(C)[C@H]4CC=C5[C@@H]6CC(C)(C)CC[C@]6(C(=O)N6CCOCC6)CC[C@@]5(C)[C@]4(C)CC[C@H]2C3(C)C)CC1`
A) 103

Q) Please give the documented growth of `O=C(/C=C/c1cccc(F)c1)c1cccc(OCCCCOc2cccc(C(=O)/C=C/c3cccc(F)c3)c2)c1`
A) 94.8

Q) // Input: `CC(=O)Nc1cc(N2CCOCC2)c2nc(NC(=O)c3[nH]c(C)c(Cl)c3Cl)sc2c1` . Output its growth only.
A) 94.8

Q) Give recorded growth. `CCCCCCOC(=O)c1cc(-c2ccc(F)cc2)nc2ccccc12`
A) 79

Q) Output measured growth for this item: `CN1CCN(Cc2ccc(NC(=O)c3cncc(C#Cc4cnc5ccc(N)nn45)c3)cc2C(F)(F)F)CC1`
A) 70.8

Q) Check the records and state growth for `O=C(Nc1cc(C(F)(F)F)cc(C(F)(F)F)c1)Nc1ccc2oc(=O)ccc2c1`
A) 14

====

- Test system: OVCAR-3 ovarian
- assay.text: NCI-60 one-dose screen, 48 h
- conditions.used: 10 µM unless noted
Compounds without any hit were thinned out: in the full panel of roughly 83,000, 20% have a hit. The source made the active and inactive calls. The calls were made as follows: active = growth percent below 10; inactive = the rest.
Response enum: active, inactive

O=C(CN1CCN(c2cc(=O)[nH]c3ccc(F)cc23)CC1)N(c1ccccc1)c1ccccc1
inactive
COc1cccc2c1[C@H](OC)[C@]13O[C@@]1(C2=O)[C@H](O)[C@H](C)[C@@](O)(C(=O)[C@@H]1O[C@H]1C)[C@@H]3O
active

# ---- query compound ----
Q) What call does the record list for CC(=O)C1=C(C)NC(NNc2ccccc2)=NC1c1ccc([N+](=O)[O-])cc1 (stereo not drawn) ?
A) inactive

====

- Test system: SK-OV-3 ovarian
- assay.text: NCI-60 one-dose screen, 48 h (100 = growth as untreated, 0 = no growth, -100 = all killed)
- conditions.used: 10 µM unless noted
Compounds without any hit were thinned out: in the full panel of roughly 83,000, 20% have a hit.
Catalogue of growth readings, one per entry.
Response body: numeric value in %, unit text excluded.

Q) Specify measured growth for `C#C[C@]1(O)CC[C@H]2[C@@H]3CC=C4c5sc(Nc6cccc(F)c6)nc5CC[C@]4(C)[C@H]3CC[C@@]21C` .
A) -10.6

Q) Identify measured growth associated with CC[C@]12CC(C(=O)OC)=C3Nc4ccccc4[C@@]34CCN(C14)[C@@H]1c3cc4c(cc3O[C@@H]1[C@H]2O)NC1=C(C(=O)OC)C[C@@]2(CC)C3N(CC[C@@]143)C[C@H]1O[C@H]12 (stereo not given in full)
A) 27.9

Q) Supply growth value. Item: `N#Cc1nc(-c2ccc(Cl)cc2)oc1N1CCC(S(=O)(=O)N2CCOCC2)CC1`
A) 119

Q) Could you please provide reported growth for `O=C(CCCCCC/C=C\c1csc(Br)n1)NO` ? Thanks!
A) 95.1

Q) Respond only with growth recorded for `COC(=O)N1CCN(CCNCc2ccc(NC(=O)c3ccc(C)c(C#Cc4cnc5cccnn45)c3)cc2C(F)(F)F)CC1`
A) 83.1

Q) In one line, give reported growth of the entry `COc1ccc(-c2cnc(NC(=O)CCCCCCNC(=O)C(O)(O)C(F)(F)F)s2)cc1` .
A) -19.3

Q) Please indicate growth recorded for `O=C(CN1CCN(c2cc(=O)[nH]c3ccc(F)cc23)CC1)N(c1ccccc1)c1ccccc1`
A) 109

Q) Quickly give me recorded growth for `O=C(CSc1nc2ccccc2c(=O)n1-c1ccc(S(=O)(=O)Nc2ccc(Cl)nn2)cc1)Nc1ccc(S(=O)(=O)Nc2ccc(Cl)nn2)cc1`
A) 105

Q) Supply measured growth of `O=C(CSc1nc2ccccc2c(=O)n1-c1ccccc1)N/N=C/c1ccc(Oc2ccc(Br)cc2)cc1` in your reply.
A) 84.5

Q) Give me measured growth, please, for this compound: `Cc1ccc2c(n1)C(=O)C(Cl)=C(Nc1ccc(C#N)cc1)C2=O`
A) 106
